Ref: patent US11339130B1

Below is a list of entries, each paired with its recorded IC50 value.
test system: Calpain activity in SH-SY5Y cells; assay: SH-SY5Y + AMC fluorescence assay (Suc-LLVY-AMC substrate); type: cell-based; settings: read-out: SH-SY5Y + AMC IC50

Study these solved cases before continuing.
compound: Cc1nc(C(=O)NC(Cc2ccccc2)C(=O)C(N)=O)c(-c2ccccc2)o1 (stereo not drawn) [Compound 494]
IC50: > 25 µM

compound: Cn1cc(C(=O)N[C@@H](Cc2ccccc2)C(=O)C(=O)NCC(N)=O)c(-c2ccccc2)n1 [Compound 339]
IC50: 10 to 25 µM

compound: Cc1ccc(-c2nn(C)cc2C(=O)NC(Cc2ccccc2)C(=O)C(N)=O)o1 (stereo not drawn) [Compound 498]
IC50: 10 to 25 µM

compound: NC(=O)C(=O)C(Cc1ccccc1)NC(=O)c1cn(C(F)F)nc1-c1cccc2c1OCCO2 (stereo not drawn) [Compound 555]
IC50: < 10 µM

compound: Cc1nc(-c2ccccc2)c(C(=O)N[C@@H](Cc2ccc(OS(=O)(=O)C(F)(F)F)cc2)C(=O)C(N)=O)o1 [Compound 355]
IC50: 10 to 25 µM

Problem: Recorded IC50 for Cn1cc(C(=O)NC(Cc2ccccc2)C(=O)C(N)=O)c(-c2cccc3c2OC(F)(F)O3)n1 (stereo not drawn) [Compound 510] , please?
Result: 10 to 25 µM
